Tested on: OVCAR-5 ovarian
Test: NCI-60 one-dose screen, 48 h
Details: 10 µM unless noted
The panel holds about 83,000 compounds, 20% with a hit somewhere; the sample as a whole holds those more often. The source made the active and inactive calls. How the source made its calls: active means growth percent below 10; inactive means the rest.
The reply should name one outcome from active, inactive

Q: Per the assay record, what outcome was assigned to COc1ccc(C2CC(c3ccc4c(c3)OCO4)=Nc3c(N)ncnc3N2)cc1 (stereo not drawn) ?
Ans: inactive

Q: Per the assay record, what outcome was assigned to Cc1ccc(/C=C2\CN(C(=O)C(Cl)Cl)C/C(=C\c3ccc(C)cc3)C2=O)cc1 ?
Ans: active

Q: Per the assay record, what outcome was assigned to COc1ccc(C/C(C)=C(/c2ccc(OCCN3CCCCCC3)cc2)c2ccc(OC(=O)NCc3ccccc3)cc2)cc1 ?
Ans: inactive

Q: Per the assay record, what outcome was assigned to CN1CCN(c2ccc(NC(=O)c3cncnc3Nc3ccc4c(ccn4Cc4cccc(F)c4)c3)cc2)CC1 ?
Ans: inactive

Q: Per the assay record, what outcome was assigned to CCN(CC)S(=O)(=O)c1ccc(S(=O)(=O)N2CCC[C@@H](C(=O)N3CCN(C(=O)OC(C)(C)C)CC3)C2)cc1 ?
Ans: inactive

Q: Per the assay record, what outcome was assigned to O=C(CN1C(=O)/C(=C/c2ccco2)SC1=S)NCCc1c[nH]c2ccc(F)cc12 ?
Ans: inactive

Q: Per the assay record, what outcome was assigned to C=CCn1c(SCC(=O)Nc2ccc(C(=O)/C=C/c3cc(OC)c(OC)c(OC)c3)cc2)nnc1-c1cc(-c2ccc(OC)cc2)nc2ccccc12 ?
Ans: inactive

Q: Per the assay record, what outcome was assigned to CC[C@]12C=CCN3CC[C@@]4(c5ccc(OC)cc5N(C)[C@H]4[C@@](O)(C(=O)OC)[C@@H]1OC(=O)CCCN1CCOCC1)[C@@H]32 ?
Ans: inactive
